# Tested on: E. coli
# Assay comment: Minimum inhibitory concentration (MIC) assay
# Type: cell-based, Escherichia coli
# Condition: 96-well plate, 37° C., 48 h; ATCC 10798
Endpoint name: Resistance to quinolone antibiotics (MIC), E. coli (µg/mL)
Form entry: value (µg/mL) — number only.

// known answers, use as guide
structure_smiles=CCn1cc(C(=O)O)c(=O)c2ccc(C)nc21 measured=4
structure_smiles=COc1c(N2C[C@@H]3CCCN[C@@H]3C2)c(F)cc2c(=O)c(C(=O)O)cn(C3CC3)c12 measured=1

# context switch: different compound, same Resistance to quinolone antibiotics (MIC), E. coli
Prompt: Consider the compound shown here: O=C(O)c1cn(C2CC2)c2cc(N3CCNCC3)c(F)cc2c1=O What is its recorded Resistance to quinolone antibiotics (MIC), E. coli?
Completion: 0.5
